Test: Solid-state stability (HPLC purity and crystal form by XRPD after storage)
Type: physicochemical
Details: 25 °C/60% RH/open, 1 week; HPLC; 10080 min
Structures can show the parent of a compound that is named as a salt.
Quantity measured: Purity (area %)

>>> print(df.to_string())
                                   compound  output_unit  observed
0  CNCc1ccc(NS(=O)(=O)c2ccsc2)c(-c2ccco2)c1 [Pyroglutamate crystal form I]       area %     98.61
1  CNCc1ccc(NS(=O)(=O)c2ccsc2)c(-c2ccco2)c1 [malate crystal form F]       area %     98.72
2  CNCc1ccc(NS(=O)(=O)c2ccsc2)c(-c2ccco2)c1 [Malonate crystal form K]       area %     98.64
3  CNCc1ccc(NS(=O)(=O)c2ccsc2)c(-c2ccco2)c1 [succinate crystal form E]       area %     98.92
4  CNCc1ccc(NS(=O)(=O)c2ccsc2)c(-c2ccco2)c1 [sulfate crystal form D]       area %     98.74
5  CNCc1ccc(NS(=O)(=O)c2ccsc2)c(-c2ccco2)c1 [Phosphate crystal form G]       area %     98.11
6  CNCc1ccc(NS(=O)(=O)c2ccsc2)c(-c2ccco2)c1 [hydrochloride crystal form C]       area %     98.97
7  CNCc1ccc(NS(=O)(=O)c2ccsc2)c(-c2ccco2)c1 [free crystal form A]       area %     98.18
8  CNCc1ccc(NS(=O)(=O)c2ccsc2)c(-c2ccco2)c1 [benzene sulfonate crystal form J]       area %     98.87
9  CNCc1ccc(NS(=O)(=O)c2ccsc2)c(-c2ccco2)c1 [Tartrate crystal form H]       area %     98.71
